target: Carbonic anhydrase 6 (Homo sapiens)
Sequence (P23280 whole entry): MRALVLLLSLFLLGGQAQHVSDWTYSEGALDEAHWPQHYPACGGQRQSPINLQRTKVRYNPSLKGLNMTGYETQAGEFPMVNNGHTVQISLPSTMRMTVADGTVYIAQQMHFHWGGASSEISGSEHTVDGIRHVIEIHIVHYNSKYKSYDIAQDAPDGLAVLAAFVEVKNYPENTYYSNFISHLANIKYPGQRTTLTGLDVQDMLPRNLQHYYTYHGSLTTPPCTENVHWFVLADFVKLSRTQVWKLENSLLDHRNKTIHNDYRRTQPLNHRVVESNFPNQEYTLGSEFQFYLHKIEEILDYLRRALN
Readings of Ki for the listed compounds
Field: numeric (µM). Do not append units.

compound	property label	unit symbol	reported
Oc1cc(O)c2c(c1)O[C@H](c1ccc(O)c(O)c1)[C@H](O)C2	Ki	µM	4.36

Here's the next entry for you.
Record for CC(C)(O)[C@@H]1CC[C@](C)([C@H]2[C@@H](O)C[C@@]3(C)C4C[C@H](O[C@@H]5OC(CO)[C@@H](O)C(O)[C@@H]5O)C5C(C)(C)[C@@H](O[C@@H]6OC[C@@H](O)C(O)[C@@H]6O)CC[C@@]56C[C@@]46CC[C@]23C)O1 (stereo partly drawn) [α-CA inhibitor, 8] under target or system Carbonic anhydrase 6 (Homo sapiens): Ki reported as 6.96
